Each entry below carries its recorded selectivity ratio.
assay: Selectivity ratio of CC50 for human MT4 cells to EC50 for HIV1 harboring reverse transcriptase E138K mutant infected in human MT4 cells; format: toxicity, cell-based; conditions: read-out: Ratio CC50/EC50
Give your answer as a number; write no unit.

# example entries with known answers
Cc1cc(C#N)cc(C)c1Oc1nc(NC2CCN(Cc3ccc(S(C)(=O)=O)cc3)CC2)nc2c1COC2 | 3990
Cc1cc(C#N)cc(C)c1Oc1nc(NC2CCN(Cc3ccc(C(N)=O)cc3)CC2)nc2c1SCC2 | 9520
Cc1cc(C#N)cc(C)c1Oc1nc(NC2CCN(Cc3ccncc3)CC2)nc2c1COC2 | 6020
Cc1cc(C#N)cc(C)c1Oc1nc(NC2CCN(Cc3ccc(S(N)(=O)=O)cc3)CC2)nc2c1COC2 | 3470

Could you now look at the following compound, please?
Note down selectivity ratio recorded for Cc1cc(C#N)cc(C)c1Oc1nc(NC2CCN(Cc3ccc(S(N)(=O)=O)cc3)CC2)nc2c1SCC2
1300
